Molecular target: human TSHR (Homo sapiens)
Construct: expressed in transfected cells
Sequence (P16473 21-764): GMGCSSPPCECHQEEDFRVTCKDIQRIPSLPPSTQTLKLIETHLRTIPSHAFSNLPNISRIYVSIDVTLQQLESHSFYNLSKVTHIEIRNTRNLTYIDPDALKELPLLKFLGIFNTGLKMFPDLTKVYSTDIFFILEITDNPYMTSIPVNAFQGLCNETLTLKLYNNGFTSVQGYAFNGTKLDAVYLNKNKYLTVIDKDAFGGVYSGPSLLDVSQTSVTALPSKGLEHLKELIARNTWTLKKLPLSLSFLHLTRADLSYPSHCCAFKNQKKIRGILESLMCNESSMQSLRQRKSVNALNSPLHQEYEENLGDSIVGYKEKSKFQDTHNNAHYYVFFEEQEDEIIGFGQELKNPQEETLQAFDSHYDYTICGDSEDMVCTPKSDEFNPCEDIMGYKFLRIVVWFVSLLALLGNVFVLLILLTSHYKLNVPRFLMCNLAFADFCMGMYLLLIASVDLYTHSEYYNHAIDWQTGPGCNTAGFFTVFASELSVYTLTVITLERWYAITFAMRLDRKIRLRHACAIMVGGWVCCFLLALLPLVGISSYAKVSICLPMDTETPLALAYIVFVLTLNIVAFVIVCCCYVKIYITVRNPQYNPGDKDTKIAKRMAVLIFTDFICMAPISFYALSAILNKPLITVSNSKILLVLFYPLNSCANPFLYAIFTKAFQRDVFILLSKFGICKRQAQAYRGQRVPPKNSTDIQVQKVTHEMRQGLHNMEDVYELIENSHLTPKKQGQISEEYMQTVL
Experiment: Homogeneous Time Resolved Fluorescence (HTRF) cAMP assay, TSHR cell line
Assay type: cell-based
Conditions: read-out: Maximum Activity compared to TSH, 100% activity = response of 30 mU/ml TSH, 0% = DMSO control
Text: Generation of Stable Cell-Lines Expressing TSHR, LHCGR or FSHR. cDNA for human TSHR was amplified by PCR from hTSHR-pSVL (1) and inserted into the pcDNA3.1(−)/hygromycin vector using restriction sites XhoI and BamHI. cDNA for human LHCGR was amplified by PCR from hLHR-pGS5 (2) and was inserted into the pcDNA3.1(+)/hygromycin vector using restriction sites BamHI and XhoI. […] Homogeneous Time Resolved Fluorescence (HTRF) cAMP Assay. […]
The following molecules are listed with their measured Emax values.
REPORTED ENDPOINT: Emax

molecule=COc1ccc(-c2nc3ccccc3c(=O)n2Cc2ccccc2)cc1CNc1ccc(NC(C)=O)cc1 measured_on="human TSHR (Homo sapiens)" reported_endpoint=Emax reported_result=30%
molecule="COc1ccc(C2Oc3ccc(NC(C)=O)cc3C(=O)N2Cc2cccc(Cl)c2)cc1COc1ccc(NC(C)=O)cc1 (stereo not shown)" measured_on="human TSHR (Homo sapiens)" reported_endpoint=Emax reported_result=79%
molecule=COc1ccc(CN(Cc2ccccc2)C(=O)c2ccccc2O)cc1 measured_on="human TSHR (Homo sapiens)" reported_endpoint=Emax reported_result=34%
molecule=COc1ccc(C(=O)N(Cc2ccccc2)Cc2ccccc2)cc1COc1ccc(NC(C)=O)cc1 measured_on="human TSHR (Homo sapiens)" reported_endpoint=Emax reported_result=40.5%
molecule=COc1ccc(-c2nc3ccccc3c(=O)n2Cc2ccccc2)cc1CNc1ccc(CC(C)=O)cc1 measured_on="human TSHR (Homo sapiens)" reported_endpoint=Emax reported_result=59%
molecule=COc1ccc(CN(Cc2ccccc2)C(=O)c2ccco2)cc1COc1ccc(NC(C)=O)cc1 measured_on="human TSHR (Homo sapiens)" reported_endpoint=Emax reported_result=125%
molecule=COc1ccc(CNc2ccccc2C(=O)NCc2ccccc2)cc1COc1ccc(NC(C)=O)cc1 measured_on="human TSHR (Homo sapiens)" reported_endpoint=Emax reported_result=47.5%
molecule="COc1ccc(C2Nc3ccccc3C(=O)N2Cc2ccccc2OC)cc1COc1ccc(NC(C)=O)cc1 (stereo not shown)" measured_on="human TSHR (Homo sapiens)" reported_endpoint=Emax reported_result=18%
molecule=COc1ccc(-c2nc3ccccc3c(=O)n2Cc2ccc(CNC(=O)CO)cc2)cc1COc1ccc(NC(C)=O)cc1 measured_on="human TSHR (Homo sapiens)" reported_endpoint=Emax reported_result=54.6%
molecule=O=C(c1ccccc1O)N(Cc1ccco1)Cc1cccs1 measured_on="human TSHR (Homo sapiens)" reported_endpoint=Emax reported_result=63.8%
molecule="COc1ccc(C2Nc3ccc(NC(C)=O)cc3C(=O)N2Cc2ccccc2)cc1COc1ccc(NC(C)=O)cc1 (stereo not shown)" measured_on="human TSHR (Homo sapiens)" reported_endpoint=Emax reported_result=126%
molecule="COc1ccc(C2Nc3ccccc3C(=O)N2Cc2ccncc2)cc1COc1ccc(NC(C)=O)cc1 (stereo not shown)" measured_on="human TSHR (Homo sapiens)" reported_endpoint=Emax reported_result=56.4%
molecule="COc1ccc(C2Nc3ccccc3C(=O)N2Cc2ccc(Cl)cc2)cc1COc1ccc(NC(C)=O)cc1 (stereo not shown)" measured_on="human TSHR (Homo sapiens)" reported_endpoint=Emax reported_result=55.2%
molecule="COc1ccc(C2Nc3ccccc3C(=O)N2Cc2ccccc2)cc1COc1cccc(C)c1 (stereo not shown)" measured_on="human TSHR (Homo sapiens)" reported_endpoint=Emax reported_result=38%
molecule="COc1ccc(C2Nc3ccccc3C(=O)N2Cc2ccccc2)cc1COc1ccccc1OC (stereo not shown)" measured_on="human TSHR (Homo sapiens)" reported_endpoint=Emax reported_result=23.5%
molecule=COc1ccc(-c2nc3ccccc3c(=O)n2Cc2ccco2)cc1COc1ccc(NC(C)=O)cc1 measured_on="human TSHR (Homo sapiens)" reported_endpoint=Emax reported_result=169%

Source listed as patent US9458141B2.
